Tested on: Aβ40
Assay comment: Cellular Aβ-lowering assay
Assay type: cell-based
Experimental conditions: HEK293 cells stably expressing human APP695, Aβ40 in supernatant by ELISA after 18-20 hrs; read-out: Cellular assay Abeta40 IC50
Where a name gives a salt, the structure may show the parent alone.
Class boundaries, taken from values of IC50, are as follows: LOW (below 10 nM), MID (10 nM to below 100 nM), HIGH (100 nM or more)

Completed entries (count: 5):
Compound	Category
CC[C@]1(c2cc(NC(=O)c3ncc(F)cc3Cl)ccc2F)N=C(N)COCC1(F)F [Example 84]	HIGH
C[C@@]1(c2cc(NC(=O)C3CC3(F)F)ccc2F)CCOCC(N)=N1 (stereo partly shown) [Example 23]	HIGH
CC[C@]1(c2cc(NC3CCCC3)ccc2F)N=C(N)COCC1(F)F [Example 119]	LOW
C[C@]1(c2cc(NC(=O)c3ncc(Cl)cc3Cl)ccc2F)N=C(N)COCC1(F)F [Example 39, formate]	LOW
CC1(C)C[C@@](C)(c2cc(NC(=O)c3ccc(OCC(F)(F)F)cn3)ccc2F)N=C(N)CO1 [Example 18]	MID

# input for lookup
[in] Record C[C@@]1(c2cc(NC(=O)c3ncccc3F)ccc2F)CCOCC(N)=N1 [Example 6, formate] — which class?
[out] MID

* * *

System: Aβ40
Assay comment: Cellular Aβ-lowering assay
Format: cell-based
Experimental conditions: HEK293 cells stably expressing human APP695, Aβ40 in supernatant by ELISA after 18-20 hrs; read-out: Cellular assay Abeta40 IC50
Structures can show the parent of a compound that is named as a salt.
Result type: IC50
Express your answer as a number followed by its unit.

Compound	Assay system	IC50
C[C@]1(c2cc(NC(=O)c3cnc(C(F)(F)F)cn3)ccc2F)N=C(N)COCC1(F)F [Example 101, formate]	Aβ40	12 nM

[in] Recall and state the measured IC50 for C[C@]1(c2cc(NC(=O)c3ncc(Cl)cn3)ccc2F)N=C(N)COCC1(F)F [Example 46] .
[out] 1.7 nM

[in] Kindly indicate its recorded IC50. Item: C[C@]1(c2cc(NC(=O)c3ccc(Cl)cn3)ccc2F)N=C(N)COC[C@@H]1F [Example 61]
[out] 0.2 nM

[in] // fetch IC50 given entry C[C@]1(c2cc(NC(=O)c3ccn(C(F)F)n3)ccc2F)N=C(N)COCC1(F)F [Example 44, formate]
[out] 2.4 nM

* * *

Test system: Aβ40
Assay comment: Cellular Aβ-lowering assay
Assay type: cell-based
Experimental conditions: HEK293 cells stably expressing human APP695, Aβ40 in supernatant by ELISA after 18-20 hrs; read-out: Cellular assay Abeta40 IC50
Where a name gives a salt, the structure may show the parent alone.
Result type: pIC50
Worth noting: pIC50 values are minus log10 of concentrations stated in mol/L.

Some compounds with known pIC50 results, for comparison:
Compound	Result type	Assay result
C[C@]1(c2cc(NC(=O)c3ncc(F)cc3Cl)ccc2F)N=C(N)COCC1(F)F [Example 40, formate]	pIC50	8.23
Cc1ocnc1C(=O)Nc1ccc(F)c([C@@]2(C)N=C(N)COCC2(F)F)c1	pIC50	7.41
C[C@]1(c2cc(NC(=O)c3ccc(OCF)cn3)ccc2F)N=C(N)COCC1(F)F [Example 70, formate]	pIC50	8.28
C[C@]1(c2cc(NC(=O)c3ncccc3Cl)ccc2F)N=C(N)COCC1(F)F [Example 36, formate]	pIC50	7.42
CC1(C)C[C@@](C)(c2cc(NC(=O)C3CC3(F)F)ccc2F)N=C(N)CO1 (some centres unmarked)	pIC50	6.36

[in] Using known records, supply pIC50 for CC[C@]1(c2cc(NC(=O)c3ncc(Cl)cn3)ccc2F)N=C(N)COCC1(F)F
[out] 7.64

[in] Supply measured pIC50 of C[C@]1(c2cc(NC(=O)c3ncc(C(F)(F)F)cc3F)ccc2F)N=C(N)COCC1(F)F [Example 88, formate] in your reply.
[out] 8.30

[in] Assign pIC50 to the following record: NC1=N[C@@]2(c3cccc(NC(=O)c4ccc(OCC(F)(F)F)cn4)c3)C[C@H]2COC1 (racemic)
[out] 6.20

* * *

Assay system: endogenous cellular BACE2 (Rattus norvegicus, UniProt Q6IE75)
Construct: endogenous cellular BACE2 in the Ins1e rat cell line; endogenous in cells
Sequence (Q6IE75 63-514): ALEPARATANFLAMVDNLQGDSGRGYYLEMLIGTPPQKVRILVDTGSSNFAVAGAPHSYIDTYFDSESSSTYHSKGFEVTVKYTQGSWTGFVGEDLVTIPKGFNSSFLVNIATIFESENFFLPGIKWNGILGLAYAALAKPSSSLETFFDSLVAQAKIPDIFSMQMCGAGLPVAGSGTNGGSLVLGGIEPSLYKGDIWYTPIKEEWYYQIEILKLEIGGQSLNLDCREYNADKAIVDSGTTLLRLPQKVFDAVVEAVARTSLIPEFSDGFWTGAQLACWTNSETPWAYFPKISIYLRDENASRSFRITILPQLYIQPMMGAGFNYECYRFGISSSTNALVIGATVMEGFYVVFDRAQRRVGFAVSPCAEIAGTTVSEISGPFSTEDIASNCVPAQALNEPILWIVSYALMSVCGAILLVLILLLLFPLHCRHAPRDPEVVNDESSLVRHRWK
Assay comment: Assay for BACE inhibition by measuring cellular TMEM27 cleavage
Experimental conditions: INS-TMEM27 (INS1e-derived) cells, shed human TMEM27 in supernatant by ELISA
IC50 vs 0.009 µM: less than gives true; not less than gives false.

Previously resolved entries follow.
Compound	Category
C[C@@]1(c2cc(NC(=O)c3ncc(C(F)(F)F)cc3Cl)ccc2F)CCOCC(N)=N1	false
C[C@]1(c2cc(NC(=O)c3ncc(Cl)cn3)ccc2F)N=C(N)COCC1(F)F	true

[in] hey, is IC50 for C[C@]1(c2cc(NC(=O)c3nn(C(F)F)cc3Cl)ccc2F)N=C(N)COC[C@@H]1F lower than 0.009 µM or not?
[out] true

[in] I'd appreciate it if you could check whether CC[C@]1(c2cc(NC(=O)c3n[nH]cc3C)ccc2F)N=C(N)COCC1(F)F has IC50 smaller than 0.009 µM.
[out] false

[in] Consider C[C@]1(c2cc(NC(=O)c3nn(C(F)F)cc3Cl)ccc2F)N=C(N)COCC1(F)F . Does its IC50 lie strictly below 0.009 µM?
[out] false

[in] For this compound, is IC50 lower than 0.009 µM? CC1(C)C[C@@](C)(c2cc(NC(=O)c3ncc(C(F)(F)F)cc3Cl)ccc2F)N=C(N)CO1
[out] true

[in] Say whether its IC50 is strictly beneath 0.009 µM. Entry: C[C@]1(c2cc(NC(=O)c3ncccc3F)ccc2F)N=C(N)COCC1(F)F
[out] false

[in] Take the compound CC[C@]1(c2cc(NC(=O)c3ccc(F)cn3)ccc2F)N=C(N)COCC1(F)F and say whether its IC50 is less than 0.009 µM.
[out] false

* * *

Tested on: Aβ40
Assay comment: Cellular Aβ-lowering assay
Assay type: cell-based
Experimental conditions: HEK293 cells stably expressing human APP695, Aβ40 in supernatant by ELISA after 18-20 hrs; read-out: Cellular assay Abeta40 IC50
Where a name gives a salt, the structure may show the parent alone.
Result type: IC50 (nM)
Only the number, expressed in nM, is required.

Worked examples follow.
Molecule	Assay system	IC50, nM
C[C@]1(c2cc(NC(=O)c3ccc(OC(F)F)cn3)ccc2F)N=C(N)COCC1(F)F [Example 48, formate]	Aβ40	1
CC1(C)OCC(N)=N[C@](C)(c2cc(NC(=O)c3ccc(C#N)cn3)ccc2F)C1(F)F [Example 111]	Aβ40	0.7
CC1(C)C[C@@](C)(c2cc(NC(=O)C3(C(F)(F)F)CC3)ccc2F)N=C(N)CO1 [Example 20]	Aβ40	220

Next:
[in] State the measured IC50 (Aβ40) of CC1(C)OCC(N)=N[C@](C)(c2cc(NC(=O)c3ccc(Cl)cn3)c(F)cc2F)C1(F)F [Example 118]
[out] 340

* * *

Reported values of IC50 for individual entries
Tested on: Aβ40
Assay comment: Cellular Aβ-lowering assay
Type: cell-based
Experimental conditions: HEK293 cells stably expressing human APP695, Aβ40 in supernatant by ELISA after 18-20 hrs; read-out: Cellular assay Abeta40 IC50
Counter-ions that a name gives are not always drawn.
Give a bare numeral; the unit nM is implied.

Use these answered entries as a reference point.
Compound	IC50 (nM)
COc1ccc(C(=O)Nc2ccc(F)c([C@@]3(C)N=C(N)COCC3(F)F)c2)nc1 [Example 90, formate]	5
CC[C@]1(c2cc(NC(=O)c3ccc(C#N)cn3)ccc2F)N=C(N)COCC1(F)F	70
C[C@]1(c2cc(NC(=O)c3ccc(OCC(F)(F)C(F)F)cn3)ccc2F)N=C(N)COCC1(F)F [Example 54, formate]	29
Cc1nc(C(=O)Nc2ccc(F)c([C@@]3(C)N=C(N)COCC3(F)F)c2)co1 [Example 42, formate]	7.4
CC1(C)OCC[C@@](C)(c2cc(NC(=O)c3ccc(Cl)cn3)ccc2F)N=C1N	58

[in] Return the recorded IC50 value; entry: CC[C@]1(c2cc(NC(=O)c3ccc(F)cn3)ccc2F)N=C(N)COCC1(F)F
[out] 60

[in] Quote IC50 reported for C[C@]1(c2cc(NC(=O)c3cnc(Cl)cn3)ccc2F)N=C(N)COCC1(F)F [Example 38, formate] please.
[out] 55

[in] Complete the entry with IC50 for C[C@@]1(c2cc(NC(=O)c3ncc(C(F)(F)F)cc3Cl)ccc2F)CCOCC(N)=N1
[out] 14

* * *

Assay system: endogenous cellular BACE2 (Rattus norvegicus, UniProt Q6IE75)
Construct: endogenous cellular BACE2 in the Ins1e rat cell line; endogenous in cells
Assay comment: Assay for BACE inhibition by measuring cellular TMEM27 cleavage
Experimental conditions: INS-TMEM27 (INS1e-derived) cells, shed human TMEM27 in supernatant by ELISA
Where a name gives a salt, the structure may show the parent alone.
Result type: IC50 (µM)
Your answer is read as µM, so omit the unit and give the number.

Compound	Readout units	Assay result
C[C@]1(c2cc(NC3CCCC3)ccc2F)N=C(N)COCC1(F)F	µM	0.4
CC[C@]1(c2cc(NC(=O)c3nc[nH]c3C)ccc2F)N=C(N)COCC1(F)F	µM	0.516
CCc1n[nH]c(C(=O)Nc2ccc(F)c([C@@]3(CC)N=C(N)COCC3(F)F)c2)c1C	µM	155
C[C@]1(c2cc(NC(=O)C3CC3(F)F)ccc2F)N=C(N)COCC1(F)F (stereo partly shown) [Example 34, formate]	µM	0.38
CCOC(=O)c1ccc(C(=O)Nc2ccc(F)c([C@@]3(C)N=C(N)COCC3(F)F)c2)nc1 [Example 58, formate formate]	µM	0.139
C[C@]1(c2cc(NC(=O)c3ncc(C(F)(F)F)cc3Cl)ccc2F)N=C(N)COCC1(F)F	µM	0.051
C[C@@]1(c2cc(NC(=O)C3(C(F)(F)F)CCC3)ccc2F)CCOCC(N)=N1	µM	0.028
C[C@]1(c2cc(NC(=O)c3ccccn3)ccc2F)N=C(N)COCC1(F)F [Example 35, formate]	µM	0.029
C[C@]1(c2cc(NC(=O)c3cnc(Cl)cn3)ccc2F)N=C(N)COCC1(F)F [Example 38, formate]	µM	0.17
Cc1nc(C(=O)Nc2ccc(F)c([C@@]3(C)N=C(N)COCC3(F)F)c2)c(C(F)(F)F)o1	µM	0.123

[in] State recorded IC50 with endogenous cellular BACE2 (Rattus norvegicus, UniProt Q6IE75), entry CC1(C)C[C@@](C)(c2cc(NC(=O)c3ccc(OCC(F)(F)F)cn3)ccc2F)N=C(N)CO1 , no comment.
[out] 0.12

[in] Tell me its IC50 on endogenous cellular BACE2 (Rattus norvegicus, UniProt Q6IE75): C[C@]1(c2cc(NC(=O)c3ncccc3OCC(F)(F)F)ccc2F)N=C(N)COCC1(F)F
[out] 0.17

[in] Please tell me the measured IC50 for CC[C@]1(c2cc(NC(=O)c3ncc(Cl)cc3Cl)ccc2F)N=C(N)COCC1(F)F ; system: endogenous cellular BACE2 (Rattus norvegicus, UniProt Q6IE75).
[out] 0.0197
